# test name: Carbamoylating activity of the compound at 5 umol by liquid scintillation spectrometry in presence of [14C]-lysine relative to 1,3-bis-(2-chloroethyl)-1-nitrosourea
# Type: physicochemical
For each record, write down the corresponding fold change (FC).

Cc1cn([C@H]2C[C@H](O)[C@@H](CNC(=O)N(C)N=O)O2)c(=O)[nH]c1=O :: 1
Cc1cn([C@H]2C[C@H](NC(=O)N(C)N=O)[C@@H](CO)O2)c(=O)[nH]c1=O :: 0.9

Go through the items and report each one's fold change (FC).
1. Cc1cn([C@H]2C[C@H](NC(=O)N(CCCl)N=O)[C@@H](CO)O2)c(=O)[nH]c1=O
2. Cc1cn([C@H]2C[C@H](O)[C@@H](CNC(=O)N(CCCl)N=O)O2)c(=O)[nH]c1=O
3. Cc1cn([C@H]2C[C@H](O)[C@@H](CN(N=O)C(=O)NCCCl)O2)c(=O)[nH]c1=O

OUT:
1. 0.9
2. 1.6
3. 1.6
